- Test system: HL-60
- Method Summary: HL-60 differentiation potency
- Format: cell-based
- Condition Info: Homo sapiens
Readout Name: pEC50
Give only the number. pEC50 is defined as minus log10 of concentration in molar units.

Reported pEC50 for C[C@H]1[C@@H](Oc2ccc(C(C)(C)C(=O)O)cc2F)O[C@@H]2O[C@@]3(C)CC[C@H]4[C@H](C)CC[C@@H]1[C@@]24OO3 [Compound 270] was 7.54

// recorded pEC50 for C[C@H]1[C@@H](Oc2ccc3cc(C(=O)O)ccc3c2)O[C@@H]2O[C@@]3(C)CC[C@H]4[C@H](C)CC[C@@H]1[C@@]24OO3 [Compound 214] : 7.27

Note to self: pEC50 recorded for C[C@H]1[C@@H](OC[C@H]2CC[C@@H](C(=O)N[C@H]3CC[C@@H](C(=O)O)C3)CC2)O[C@@H]2O[C@@]3(C)CC[C@H]4[C@H](C)CC[C@@H]1[C@@]24OO3 [Compound 267] was 6.81

pEC50 reading for C[C@H]1[C@@H](Oc2ccc3[nH]c(C(=O)O)cc3c2)O[C@@H]2O[C@@]3(C)CC[C@H]4[C@H](C)CC[C@@H]1[C@@]24OO3 [Compound 208] : 7.16

Per the record, C[C@H]1[C@@H](O[C@H]2CC[C@@H](C(=O)N[C@H]3C[C@@H](C(=O)O)C3)CC2)O[C@@H]2O[C@@]3(C)CC[C@H]4[C@H](C)CC[C@@H]1[C@@]24OO3 [Compound 228] has pEC50 of 5.04

Quick note, pEC50 for C[C@H]1[C@@H](O[C@H]2CC[C@@H](OCC(=O)O)CC2)O[C@@H]2O[C@@]3(C)CC[C@H]4[C@H](C)CC[C@@H]1[C@@]24OO3 [Compound 224] landed at 5.09

###

- System: HL-60
- Method Summary: HL-60 differentiation potency
- Assay type: cell-based
- Condition Info: Homo sapiens
pEC50: −log10 of the molar value.
Note to self: values exactly at 7 are label 1. So pEC50 at or above 7 is label 1, below is label 0.

Quick check, pEC50 >= 7? C[C@H]1[C@H](NCc2ccc(S(C)(=O)=O)cc2)O[C@@H]2O[C@@]3(C)CC[C@H]4[C@H](C)CC[C@@H]1[C@@]24OO3 label 0

hey, is pEC50 for this one >= 7? C[C@H]1[C@@H](Oc2ccc(-c3ccc(C(=O)O)cc3)cc2)O[C@@H]2O[C@@]3(C)CC[C@H]4[C@H](C)CC[C@@H]1[C@@]24OO3 label 1

Check this compound for pEC50 at or above 7: Cc1cc(CO[C@H]2O[C@@H]3O[C@@]4(C)CC[C@H]5[C@H](C)CC[C@@H]([C@H]2C)[C@@]35OO4)ccc1C(=O)O label 0

Could you tell me if the measured pEC50 of Cc1cc(C(=O)O)ccc1CO[C@H]1O[C@@H]2O[C@@]3(C)CC[C@H]4[C@H](C)CC[C@@H]([C@H]1C)[C@@]24OO3 reaches 7 or more? label 0

Item CNC(=O)N1CCN([C@@H]2O[C@@H]3O[C@@]4(C)CC[C@H]5[C@H](C)CC[C@@H]([C@H]2C)[C@@]35OO4)CC1 with pEC50 of 7 or above? label 0

Given the entry C[C@H]1[C@H](OCc2ccc(-c3nn[nH]n3)cc2)O[C@@H]2O[C@@]3(C)CC[C@H]4[C@H](C)CC[C@@H]1[C@@]24OO3 , answer whether its pEC50 meets or surpasses 7. label 1

Check the entry C[C@H]1[C@H](OCC(=O)N2CCC(C(=O)O)CC2)O[C@@H]2O[C@@]3(C)CC[C@H]4[C@H](C)CC[C@@H]1[C@@]24OO3 : does pEC50 equal or exceed 7? label 0

Textbook exercise: given the entry C[C@H]1[C@H](NC2CS(=O)(=O)C2)O[C@@H]2O[C@@]3(C)CC[C@H]4[C@H](C)CC[C@@H]1[C@@]24OO3 , state whether its pEC50 is greater than or equal to 7. label 0

hey, is pEC50 for this one >= 7? COc1cc(CC(=O)O)ccc1O[C@H]1O[C@@H]2O[C@@]3(C)CC[C@H]4[C@H](C)CC[C@@H]([C@H]1C)[C@@]24OO3 label 1

Is it the case that C[C@H]1[C@H](N2CCC(C(=O)NC3COC3)CC2)O[C@@H]2O[C@@]3(C)CC[C@H]4[C@H](C)CC[C@@H]1[C@@]24OO3 has pEC50 reaching or exceeding 7? label 0

Can C[C@H]1[C@@H](OCc2cc(F)c(C(=O)O)c(F)c2)O[C@@H]2O[C@@]3(C)CC[C@H]4[C@H](C)CC[C@@H]1[C@@]24OO3 be said to have pEC50 at or above 7? label 0

In plain terms: is recorded pEC50 at least 7 for C[C@H]1[C@@H](OC[C@H]2CC[C@@H](C(=O)O)C2)O[C@@H]2O[C@@]3(C)CC[C@H]4[C@H](C)CC[C@@H]1[C@@]24OO3 ? label 0

Reported pEC50 at or above 7? C[C@H]1[C@@H](Oc2ccc(CC(=O)O)c(F)c2F)O[C@@H]2O[C@@]3(C)CC[C@H]4[C@H](C)CC[C@@H]1[C@@]24OO3 label 0

Does the compound C[C@H]1[C@@H](Oc2ccc(C3(C(=O)O)CC3)cc2)O[C@@H]2O[C@@]3(C)CC[C@H]4[C@H](C)CC[C@@H]1[C@@]24OO3 have recorded pEC50 that is 7 or more? label 1

Reported pEC50 at or above 7? C[C@H]1[C@H](N2CCCCC2)O[C@@H]2O[C@@]3(C)CC[C@H]4[C@H](C)CC[C@@H]1[C@@]24OO3 label 0

Hi, just wondering whether C[C@H]1[C@@H](Oc2ccc(-c3nn[nH]n3)cc2)O[C@@H]2O[C@@]3(C)CC[C@H]4[C@H](C)CC[C@@H]1[C@@]24OO3 shows pEC50 of 7 or higher. label 1

Evaluate C[C@@H]1CC[C@H]2[C@@H](C)C(OCc3ccc(C(=O)O)cc3F)O[C@@H]3O[C@@]4(C)CC[C@@H]1[C@]32OO4 (stereo in doubt) : pEC50 at minimum 7? label 0

Has C[C@H]1[C@@H](Oc2ccc(C(=O)C(=O)O)cc2)O[C@@H]2O[C@@]3(C)CC[C@H]4[C@H](C)CC[C@@H]1[C@@]24OO3 a recorded pEC50 greater than or equal to 7? label 0

###

- Method Summary: in vitro
- Condition Info: human
Please respond with reported pIC50 for every item in the list.
Lab note: report pIC50 as minus log10 of the concentration in molar units, number only.

pIC50 for C[C@H]1[C@H](N(C)CCS(C)(=O)=O)O[C@@H]2O[C@@]3(C)CC[C@H]4[C@H](C)CC[C@@H]1[C@@]24OO3 is 6.61

Entry under test: C[C@H]1[C@H](Oc2ccc(C#CC(=O)O)cc2)O[C@@H]2O[C@@]3(C)CC[C@H]4[C@H](C)CC[C@@H]1[C@@]24OO3 . Its pIC50 was 5.52

Value of pIC50 reported for the compound C[C@H]1[C@H](NCCC(N)=O)O[C@@H]2O[C@@]3(C)CC[C@H]4[C@H](C)CC[C@@H]1[C@@]24OO3 is 5.70

###

- Test system: HL-60
- Method Summary: HL-60 differentiation potency
- Assay type: cell-based
- Condition Info: Homo sapiens
pEC50: −log10 of the molar value.
Binary classification by pEC50, with 7 as an inclusive lower bound for 1 (yes); all other cases are 0 (no).

# check: pEC50 of C[C@H]1[C@@H](OC[C@H]2CC[C@@H](C(=O)NC(C(=O)O)C3CCC3)CC2)O[C@@H]2O[C@@]3(C)CC[C@H]4[C@H](C)CC[C@@H]1[C@@]24OO3 (some centres unmarked) [Compound 185] is greater than or equal to 7 1 (yes)

Would you say C[C@H]1[C@@H](Oc2ccc(Cn3cc(C(=O)O)nn3)cc2)O[C@@H]2O[C@@]3(C)CC[C@H]4[C@H](C)CC[C@@H]1[C@@]24OO3 [Compound 245] shows pEC50 at minimum 7? 0 (no)

Item C[C@H]1[C@@H](OC[C@H]2CC[C@@H](C(=O)N[C@H]3C[C@@H](C(=O)O)C3)CC2)O[C@@H]2O[C@@]3(C)CC[C@H]4[C@H](C)CC[C@@H]1[C@@]24OO3 [Compound 241] with pEC50 of 7 or above? 0 (no)

Hello, I need to know if CC(C)[C@H](NC(=O)c1ccc(O[C@H]2O[C@@H]3O[C@@]4(C)CC[C@H]5[C@H](C)CC[C@@H]([C@H]2C)[C@@]35OO4)cc1)C(=O)O [Compound 236] has measured pEC50 not below 7. Thanks! 1 (yes)

Dear colleague, could you confirm whether C[C@H]1[C@@H](OCc2ccc(C(=O)NC34CCC(C(=O)O)(C3)C4)cc2)O[C@@H]2O[C@@]3(C)CC[C@H]4[C@H](C)CC[C@@H]1[C@@]24OO3 [Compound 293] has pEC50 at or above 7? 1 (yes)

Could you tell me if the measured pEC50 of C[C@H]1[C@@H](OC[C@H]2CC[C@@H](C(=O)N[C@@H](CC(F)(F)F)C(=O)O)CC2)O[C@@H]2O[C@@]3(C)CC[C@H]4[C@H](C)CC[C@@H]1[C@@]24OO3 [Compound 256] reaches 7 or more? 0 (no)

Assess whether reported pEC50 for C[C@H]1[C@@H](Oc2ccc(C(=O)N[C@@H](CC3CCC3)C(=O)O)cc2)O[C@@H]2O[C@@]3(C)CC[C@H]4[C@H](C)CC[C@@H]1[C@@]24OO3 [Compound 205] sits at 7 or higher. 1 (yes)

Does C[C@H]1[C@@H](OCc2ccc(C(=O)NCC3(C(=O)O)CCC3)cc2)O[C@@H]2O[C@@]3(C)CC[C@H]4[C@H](C)CC[C@@H]1[C@@]24OO3 [Compound 286] have a reported pEC50 of at least 7? 1 (yes)

API: above_or_equal(metric=pEC50, cutoff=7) for item C[C@H]1[C@@H](Oc2ccc(CC(=O)N[C@H]3CC[C@@H](C(=O)O)CC3)cc2)O[C@@H]2O[C@@]3(C)CC[C@H]4[C@H](C)CC[C@@H]1[C@@]24OO3 [Compound 308] 1 (yes)

pEC50 >= 7 for C[C@H]1[C@@H](OCc2ccc(C(=O)NC(C)(C)C(=O)O)cc2)O[C@@H]2O[C@@]3(C)CC[C@H]4[C@H](C)CC[C@@H]1[C@@]24OO3 [Compound 284] ? 0 (no)
